# System: Ran GTPase (GTP-bound) - importin-beta complex
# experiment: disruptors of Ran-importin-beta complex formation – biochemical, FRET, CFP-Ran, YFP-importin-beta, homogeneous, primary screen (AID 2216);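 note: 0% = DMSO wells and 100% = Ran loaded with GDP instead of GTP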
# experimental setup: cell-free CFP-Ran/YFP-importin-beta FRET ratio; stronger effect = higher value; concentration not given here
In all, about 300,000 compounds went through this assay and about 3,300 (1.1%) were called active. Inconclusive results (about 6%) are left out. What follows is part of a selection rich in actives, with near analogues and random picks from the rest.
quantity: inhibition

stdin: Any idea what its inhibition is? The compound is Cc1cccn2c(=O)c3cc(C(=O)NCC4CCCO4)c(=N)n(Cc4ccc(F)cc4)c3nc12 (stereo unspecified)
stdout: 188% (active)

stdin: Any idea what its inhibition is? The compound is COc1ccc(CCC(=O)c2ccc(OC)cc2)cc1
stdout: 0.925% (inactive)

stdin: Any idea what its inhibition is? The compound is CCn1c2ccccc2c2cc(NC(=O)COC(=O)c3ccccc3Br)ccc21
stdout: -2.01% (inactive)

stdin: Any idea what its inhibition is? The compound is Cc1nc2ccccc2c(=O)n1-c1ccc(NS(=O)(=O)c2ccc(F)cc2F)cc1
stdout: 0.359% (inactive)

stdin: Any idea what its inhibition is? The compound is COc1ccccc1/C=C/C(=O)NC(=S)N1CCOCC1
stdout: -1.73% (inactive)

stdin: Any idea what its inhibition is? The compound is CC(=O)Nc1ccc(C(=O)/C=C/c2ccc[nH]2)cc1
stdout: 16.6% (active)

stdin: Any idea what its inhibition is? The compound is CCn1c2ccccc2c2cc(NC(=O)CNC)ccc21
stdout: 18.8% (active)

stdin: Any idea what its inhibition is? The compound is Cc1ccc(N2CCN(c3ccc(C)cc3)C2c2ccccn2)cc1
stdout: 20.1% (active)

stdin: Any idea what its inhibition is? The compound is COc1ccc(C(=O)C[n+]2ccc(C)cc2)cc1
stdout: 6.13% (inactive)

stdin: Any idea what its inhibition is? The compound is O=C(COC(=O)c1ncc(Cl)c(Cl)c1Cl)NC1CCS(=O)(=O)C1 (stereo unspecified)
stdout: 1.31% (inactive)

stdin: Any idea what its inhibition is? The compound is COc1ccccc1/C=C/C1=NC(=C\N(C)C)/C(=O)O1
stdout: 37% (active)
